# key: entry, value: ASMS ratio (%) n = 2
experimental-target: Bcl-2 protein (Recombinant Human Bcl-2 Protein) (Homo sapiens)
Construct: purchased Novus Biologicals NBP2-34889
Sequence (P10415 whole entry): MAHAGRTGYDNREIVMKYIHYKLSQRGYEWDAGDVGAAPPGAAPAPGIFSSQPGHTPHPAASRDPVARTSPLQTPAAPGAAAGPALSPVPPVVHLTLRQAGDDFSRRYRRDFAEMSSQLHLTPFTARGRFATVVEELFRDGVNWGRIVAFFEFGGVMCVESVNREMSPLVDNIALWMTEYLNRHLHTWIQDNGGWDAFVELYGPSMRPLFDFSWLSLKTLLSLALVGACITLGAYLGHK
experiment-summary: AS-MS evaluation of binding of the Example 4 mixture library (1200 compounds/well) to Bcl-2, ASMS ratio (%)
particulars: AS-MS, mixture of 1200 compounds/well, Bcl-2 protein; replicate n = 2
parameter-measured: ASMS ratio (%) n = 2

compound: CCCNC(=O)c1ccc(N2CCN(C(C)c3ccc(-c4cccc(OCC)c4)cc3)CC2)cc1 (stereo not shown) [Compound B1M097-01]
experimental-target: Bcl-2 protein (Recombinant Human Bcl-2 Protein) (Homo sapiens)
assay-result: 0.3
//
compound: CCCNC(=O)c1ccc(N2CCN(Cc3cc(-c4cncc(OCC)c4)cs3)CC2)nn1 [Compound B1M094-01]
experimental-target: Bcl-2 protein (Recombinant Human Bcl-2 Protein) (Homo sapiens)
assay-result: −2.1
//
compound: CCCNC(=O)c1ccc(N2CCN(C(=O)c3cc(C#Cc4cccc(OCC)c4)cc(C(F)(F)F)c3)CC2)nn1 [Compound B1M019-01]
experimental-target: Bcl-2 protein (Recombinant Human Bcl-2 Protein) (Homo sapiens)
assay-result: 0.0
//
compound: CCOc1cncc(C#Cc2cc(C(=O)N3CCN(c4ccc(C(=O)N(C)CC56CC7CC(CC(C7)C5)C6)nn4)CC3)cc(C(F)(F)F)c2)c1 [Compound B3A020-01]
experimental-target: Bcl-2 protein (Recombinant Human Bcl-2 Protein) (Homo sapiens)
assay-result: −3.2
//
compound: CCOc1cccc(-c2ccc(CN3CCN(c4ccc(C(=O)Nc5ccc(OC)cc5)nn4)CC3)c3ccccc23)c1 [Compound B1O091-01]
experimental-target: Bcl-2 protein (Recombinant Human Bcl-2 Protein) (Homo sapiens)
assay-result: −2.2
//
compound: CCCNC(=O)c1ccc(N2CCN(C(=O)c3cc(-c4cncc(OCC)c4)cc(C(F)(F)F)c3)CC2)nn1 [Compound B1M018-01]
experimental-target: Bcl-2 protein (Recombinant Human Bcl-2 Protein) (Homo sapiens)
assay-result: 0.0
//
compound: CCOc1cccc(-c2cc(CN3CCN(c4ccc(C(=O)NCC(F)(F)F)cc4)CC3)cc(OC(F)(F)F)c2)c1 [Compound B1K063-01]
experimental-target: Bcl-2 protein (Recombinant Human Bcl-2 Protein) (Homo sapiens)
assay-result: 0.4
//
compound: CCOc1cccc(C#Cc2cc(C(=O)N3CCN(c4ccc(C(=O)N(C)CC56CC7CC(CC(C7)C5)C6)nn4)CC3)cc(C(F)(F)F)c2)c1 [Compound B3A019-01]
experimental-target: Bcl-2 protein (Recombinant Human Bcl-2 Protein) (Homo sapiens)
assay-result: −2.3
//
compound: CCCNC(=O)c1ccc(N2CCN(C(C)c3ccc(-c4cncc(OCC)c4)cc3)CC2)cc1 (stereo not shown) [Compound B1M098-01]
experimental-target: Bcl-2 protein (Recombinant Human Bcl-2 Protein) (Homo sapiens)
assay-result: 0.3
//
compound: CCCNC(=O)c1ccc(N2CCN(Cc3cc(OCC)cc(-c4cncc(OCC)c4)c3)CC2)nn1 [Compound B1M012-01]
experimental-target: Bcl-2 protein (Recombinant Human Bcl-2 Protein) (Homo sapiens)
assay-result: −2.3
//
compound: CCCNC(=O)c1ccc(N2CCN(C(=O)c3ccc(-c4cccc(OCC)c4)c(C)c3)CC2)cc1 [Compound B1M025-01]
experimental-target: Bcl-2 protein (Recombinant Human Bcl-2 Protein) (Homo sapiens)
assay-result: −1.2
//
compound: CCCNC(=O)c1ccc(N2CCN(C(=O)c3cc(-c4cncc(OCC)c4)cc(C(C)(C)C)c3)CC2)nn1 [Compound B1M016-01]
experimental-target: Bcl-2 protein (Recombinant Human Bcl-2 Protein) (Homo sapiens)
assay-result: 0.0
//
compound: CCCNC(=O)c1ccc(N2CCN(C(=O)CCc3ccccc3-c3cccc(OCC)c3)CC2)nn1 [Compound B1M011-01]
experimental-target: Bcl-2 protein (Recombinant Human Bcl-2 Protein) (Homo sapiens)
assay-result: 7.5
